Reported normalized growth by item:
Assay: chemical genetic growth profiling, strain panel (AID 1159580);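 note: tested at 20 µM; growth read once vehicle control cultures reached saturation at 30 °C; 1 = growth at the plate median or of vehicle wells; lower values mean less growth of the strain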
Details: S. cerevisiae deletion strains, growth OD, locus YML120C, strain ndi1, active compounds read low
In all, about 5,500 compounds went through this assay and about 2,000 (36%) were called active. Inconclusive results (about 18%) are left out. This is one part of the list.
The answer should be written as a number, with no unit following it.

// solved cases for normalized growth follow
[[record]]
molecule = "c1ccc(N=Nc2ccccc2)cc1"
measured_number = 0.976

[[record]]
molecule = "CCCCCCCCNC(C)C(O)c1ccc(SC(C)C)cc1 (stereo unspecified)"
measured_number = 0.0554

[[record]]
molecule = "C[N+](C)(C)CCOC(N)=O"
measured_number = 1.02

[[record]]
molecule = "CC(C)(O)[C@@H]1[C@H]2OC(=O)[C@@H]1[C@]1(O)C[C@H]3O[C@]34C(=O)O[C@H]2[C@]14C"
measured_number = 1.01

[[record]]
molecule = "COc1cc(NS(=O)(=O)c2ccc(N)cc2)nc(OC)n1"
measured_number = 0.972


Per the record, `CC(=O)OCC[N+](C)(C)C` has normalized growth of 1.04

Per the record, `CCOC(=O)[C@H](CCc1ccccc1)N[C@H]1CCc2ccccc2N(CC(=O)O)C1=O` has normalized growth of 0.975

Per the record, `CC1(C)OC(=O)NC1=O` has normalized growth of 1.02

Per the record, CC(NCCc1ccc(O)cc1)C(O)c1ccc(O)cc1 (stereo unspecified) has normalized growth of 1.02

Per the record, `CCOC(=O)CCC(=O)O[C@H]1[C@H](O[C@@H]2[C@@H](C)[C@H](O[C@H]3C[C@@](C)(OC)[C@@H](O)[C@H](C)O3)[C@@H](C)C(=O)O[C@H](CC)[C@@](C)(O)[C@H](O)[C@@H](C)C(=O)[C@H](C)C[C@@]2(C)O)O[C@H](C)C[C@@H]1N(C)C` has normalized growth of 0.995

Per the record, Cc1cccc(C)c1OCC(C)N (stereo unspecified) has normalized growth of 1

* * *

Test: chemical genetic growth profiling, strain panel (AID 1159580);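 note: tested at 20 µM; growth read once vehicle control cultures reached saturation at 30 °C; 1 = growth at the plate median or of vehicle wells; lower values mean less growth of the strain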
Settings: S. cerevisiae deletion strains, growth OD, locus YKR026C, strain gcn3, active compounds read low
Among all 5,500 compounds or so, about 2,000 (36%) were called active. About 18% were inconclusive and are not listed. Some of the results follow.
Readout label: normalized growth

Per the record, `CCC(=O)O[C@H]1[C@H](O[C@@H]2[C@@H](C)[C@H](O[C@H]3C[C@@](C)(OC)[C@@H](O)[C@H](C)O3)[C@@H](C)C(=O)O[C@H](CC)[C@@](C)(O)[C@H](O)[C@@H](C)C(=O)[C@H](C)C[C@@]2(C)O)O[C@H](C)C[C@@H]1N(C)C` has normalized growth of 1.03 (inactive)

Per the record, `CCCCCCCCCCCCCCCC(=O)OC/C=C(C)/C=C/C=C(C)/C=C/C1=C(C)CCCC1(C)C` has normalized growth of 1.03 (inactive)

Per the record, `COc1cc2c(cc1OC)C(=O)OC2` has normalized growth of 0.992 (inactive)

Per the record, CC(=O)OCC(=O)[C@@]1(O)CCC2C3CCC4=CC(=O)CC[C@]4(C)C3C(=O)C[C@@]21C (some centres undefined) has normalized growth of 0.974 (inactive)

Per the record, CC(C(=O)O)c1ccc(-c2ccccc2)c(F)c1 (centres undefined) has normalized growth of 0.977 (inactive)

Per the record, C[C@H]1CC2C([C@@H](O)C[C@@]3(C)C2CC[C@]3(O)C(=O)CO)[C@@]2(C)C=CC(=O)C=C12 (some centres undefined) has normalized growth of 0.999 (inactive)

Per the record, `CCCCCCNC(=O)n1cc(F)c(=O)[nH]c1=O` has normalized growth of 0.993 (inactive)

Per the record, C=C(C)C1CNC(C(=O)O)C1CC(=O)O (centres undefined) has normalized growth of 0.971 (inactive)

Data credit: PubChem BioAssay AID1159580
